Overview of recorded IC50 for various compounds
# TGT: EGFR (Homo sapiens)
# Construct: Kinases are expressed as either kinase domains or full length constructs; made in house
# Sequence (P00533 25-1210, species assumed): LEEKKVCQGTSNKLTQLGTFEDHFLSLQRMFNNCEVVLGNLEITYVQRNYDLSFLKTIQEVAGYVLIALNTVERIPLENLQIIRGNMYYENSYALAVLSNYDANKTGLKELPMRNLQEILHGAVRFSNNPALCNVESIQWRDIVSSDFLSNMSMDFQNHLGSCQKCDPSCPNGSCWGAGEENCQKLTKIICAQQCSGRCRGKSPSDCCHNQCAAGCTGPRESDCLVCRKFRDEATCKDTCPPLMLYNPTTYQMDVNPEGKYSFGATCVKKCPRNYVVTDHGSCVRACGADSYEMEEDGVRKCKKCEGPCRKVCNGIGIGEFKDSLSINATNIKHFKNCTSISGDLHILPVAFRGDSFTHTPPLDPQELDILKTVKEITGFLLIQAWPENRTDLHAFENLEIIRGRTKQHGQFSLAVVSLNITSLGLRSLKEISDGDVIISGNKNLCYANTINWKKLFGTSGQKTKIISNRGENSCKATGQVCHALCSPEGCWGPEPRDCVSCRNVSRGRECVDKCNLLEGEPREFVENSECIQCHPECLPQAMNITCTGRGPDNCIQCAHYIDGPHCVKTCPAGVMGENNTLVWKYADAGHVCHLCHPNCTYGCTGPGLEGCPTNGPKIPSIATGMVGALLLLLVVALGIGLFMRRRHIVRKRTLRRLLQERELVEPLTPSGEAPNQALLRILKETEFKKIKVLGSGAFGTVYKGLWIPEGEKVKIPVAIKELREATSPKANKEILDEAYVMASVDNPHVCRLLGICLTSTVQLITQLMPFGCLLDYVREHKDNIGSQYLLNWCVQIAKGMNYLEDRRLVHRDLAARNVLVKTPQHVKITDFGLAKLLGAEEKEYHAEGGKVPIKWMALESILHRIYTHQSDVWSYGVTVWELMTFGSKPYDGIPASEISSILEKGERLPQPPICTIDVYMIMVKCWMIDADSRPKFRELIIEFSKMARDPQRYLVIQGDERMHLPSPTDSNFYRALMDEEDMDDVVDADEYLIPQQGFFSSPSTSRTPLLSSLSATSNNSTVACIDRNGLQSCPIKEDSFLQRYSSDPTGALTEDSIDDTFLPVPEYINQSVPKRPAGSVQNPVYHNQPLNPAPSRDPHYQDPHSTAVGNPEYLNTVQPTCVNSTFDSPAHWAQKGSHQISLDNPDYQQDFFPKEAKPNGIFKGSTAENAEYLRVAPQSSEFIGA
# EXPERIMENTAL_PROTOCOL: Kinase inhibition assay (33P transfer), EGFR
# Assay type: biochemical
# RUN_PARAMETERS: Table 2, kinase inhibition class; read-out: EGFR-1

COMPOUND | IC50
COc1cc(Nc2ncnc(-n3cc(CCO)c4ccccc43)n2)cc(OC)c1OC [Compound 463] | > 10.7 µM
CN(C)CCNc1ncnc(Nc2ccc3c(cnn3Cc3ccccc3)c2)n1 [Compound 733] | 1.03 to 6.18 µM
COC(=O)c1ccc(-c2cc(Nc3ncnc(Nc4ccc(CO)cc4)n3)[nH]n2)cc1 [Compound 989] | 0.958 to 5.75 µM
CN(c1cccc(Cl)c1)c1ncnc(Nc2ccc3cn[nH]c3c2)n1 [Compound 718] | < 1.14 µM

Per the record, COc1cc(Nc2ncnc(Nc3ncncn3)n2)cc(OC)c1OC [Compound 254] has IC50 of > 12.6 µM

Per the record, COc1cc(Nc2ncnc(Nc3cc(-c4ccccc4)n[nH]3)n2)cc(OC)c1OC [Compound 102] has IC50 of 0.954 to 5.72 µM

The measured values listed here are drawn from patent US7074789B2.
